Value source: ChEMBL document CHEMBL1152518

- Method: Selectivity index, ratio of CC50 for mock-infected human MT4 cells to EC50 for HIV1 3B infected in human MT4 cells
- Format: toxicity, cell-based
- Test context: mock-infected (CC50) and HIV-1 3B infected (EC50)
Metric: selectivity ratio

# count of solved cases: 4
>>> obs_value("Cc1ccc2sc(NC(=O)CSc3[se]nnc3-c3ccc(Cl)c(Cl)c3)nc2c1")
"< 1"
>>> obs_value("Cc1ccc(NC(=O)CSc2[se]nnc2-c2ccc(Cl)c(Cl)c2)cc1")
2
>>> obs_value("O=C(CSc1[se]nnc1-c1ccc(Cl)c(Cl)c1)Nc1ccccc1F")
"< 1"
>>> obs_value("O=C(CSc1[se]nnc1-c1ccc(Cl)c(Cl)c1)Nc1ccccn1")
"< 1"

Field: next compound
Using the record for Cc1cccc(NC(=O)CSc2[se]nnc2-c2ccc(Cl)c(Cl)c2)c1C , report its selectivity ratio. < 1

====

- Method: Selectivity index, ratio of CC50 for mock-infected human MT4 cells to EC50 for HIV1 3B infected in human MT4 cells
- Assay type: toxicity, cell-based
- Test context: mock-infected (CC50) and HIV-1 3B infected (EC50)
Provide the recorded selectivity ratio for the entries that follow.
Answers are plain numbers.

>>> obs_value("Cc1ccccc1NC(=O)CSc1[se]nnc1-c1ccc(Cl)c(Cl)c1")
4

Field: next molecule
Using the record for CC(=O)c1ccc(NC(=O)CSc2[se]nnc2-c2ccc(Cl)c(Cl)c2)c(Br)c1 , report its selectivity ratio. 8

====

- Method: Cytotoxicity against mock-infected human MT4 cells after 5 days by MTT assay
- Type: cell-based
Metric: CC50 at 120 h (µM)
Give bare numbers, in µM.

# count of solved cases: 2
>>> obs_value("Cc1ccc(NC(=O)CSc2[se]nnc2-c2ccc(Cl)c(Cl)c2)cc1")
13.3
>>> obs_value("Cc1ccc(NC(=O)CSc2[se]nnc2-c2ccc(Cl)c(Cl)c2)c(Br)c1")
22.9

I'm hoping you can list CC50 at 120 h for every compound here, please.
1. Cc1cccc(C)c1NC(=O)CSc1[se]nnc1-c1ccc(Cl)c(Cl)c1
2. O=C(CSc1[se]nnc1-c1ccc(Cl)c(Cl)c1)Nc1ccccc1Br

[7, 23.6]

I'm hoping you can list CC50 at 120 h for every compound here, please.
1. O=C(CSc1[se]nnc1-c1ccc(Cl)c(Cl)c1)Nc1ccccn1
2. Cc1ccccc1NC(=O)CSc1[se]nnc1-c1ccc(Cl)c(Cl)c1
3. Cc1ccc2sc(NC(=O)CSc3[se]nnc3-c3ccc(Cl)c(Cl)c3)nc2c1
4. O=C(CSc1[se]nnc1-c1ccc(Cl)c(Cl)c1)Nc1cccnc1Cl
5. Cc1ccc(NC(=O)CSc2[se]nnc2-c2ccc(Cl)c(Cl)c2)c([N+](=O)[O-])c1
6. CC(=O)c1ccc(NC(=O)CSc2[se]nnc2-c2ccc(Cl)c(Cl)c2)c(Br)c1

[31.4, 22.3, 10.2, 24.8, 26.3, 18.9]

====

- Assayed system: Human immunodeficiency virus type 1 reverse transcriptase (Human immunodeficiency virus 1, UniProt Q72547)
Metric: pIC50
Answers are plain numbers, as −log10 of the molar value.

Using the record for Cc1cc(C)c(-n2nnnc2SCC(=O)Nc2ccccc2Cl)c(C)c1 , report its pIC50. 8.30

====

- Method: Cytotoxicity against mock-infected human MT4 cells after 5 days by MTT assay
- Assay type: cell-based
Metric: CC50 at 120 h (µM)
Give bare numbers, in µM.

I'm hoping you can list CC50 at 120 h for every compound here, please.
1. O=C(CSc1[se]nnc1-c1ccc(Cl)c(Cl)c1)Nc1ccccc1[N+](=O)[O-]
2. Cc1cccc(NC(=O)CSc2[se]nnc2-c2ccc(Cl)c(Cl)c2)c1C
3. O=C(CSc1[se]nnc1-c1ccc(Cl)c(Cl)c1)Nc1ccccc1

1. 26.6
2. 12.8
3. 19

====

- Assayed system: Human immunodeficiency virus type 1 reverse transcriptase (Human immunodeficiency virus 1, UniProt Q72547, K103N/Y181C)
- Method: Inhibition of HIV1 reverse transcriptase K103N/Y181C mutant
Metric: EC50 (nM)
Numbers only, in nM.

Using the record for Cc1ccc(NC(=O)CSc2nnc(C)n2-c2ccccc2)c(Br)c1 , report its EC50. 1300

====

- Method: Selectivity index, ratio of CC50 for mock-infected human MT4 cells to EC50 for HIV1 3B infected in human MT4 cells
- Type: toxicity, cell-based
- Test context: mock-infected (CC50) and HIV-1 3B infected (EC50)
Metric: selectivity ratio

# count of solved cases: 2
>>> obs_value("O=C(CSc1[se]nnc1-c1ccc(Cl)c(Cl)c1)Nc1cccnc1Cl")
"< 1"
>>> obs_value("O=C(CSc1[se]nnc1-c1ccc(Cl)c(Cl)c1)Nc1ccccc1Cl")
"< 1"

Field: next compound
Using the record for Cc1cccc(C)c1NC(=O)CSc1[se]nnc1-c1ccc(Cl)c(Cl)c1 , report its selectivity ratio. < 1

====

Provide the recorded CC50 at 120 h for the entries that follow.
- Method: Cytotoxicity against mock-infected human MT4 cells after 5 days by MTT assay
- Format: cell-based
Numbers only, in µM.

>>> obs_value("O=C(CSc1[se]nnc1-c1ccc(Cl)c(Cl)c1)Nc1nccs1")
8.68
>>> obs_value("O=C(CSc1[se]nnc1-c1ccc(Cl)c(Cl)c1)Nc1ccccc1F")
26.9
>>> obs_value("O=C(CSc1[se]nnc1-c1ccc(Cl)c(Cl)c1)Nc1ccccc1Cl")
23.4
>>> obs_value("O=C(CSc1[se]nnc1-c1ccc(Cl)c(Cl)c1)Nc1ccc(Cl)cc1")
16.8

Using the record for COC(=O)c1ccsc1NC(=O)CSc1[se]nnc1-c1ccc(Cl)c(Cl)c1 , report its CC50 at 120 h. 22
